# credit: ChEMBL document CHEMBL1122166

- experimental target: Adrenergic receptor beta (Homo sapiens) (UniProt P08588+P07550+P13945)
- experiment description: In vivo beta adrenergic receptor blocking potency was determined by inhibition of tachycardia produced by isoproterenol (0.2 mg/kg iv) in cat preparation
- Format: functional, organism-based
- particulars: Felis catus; in the assay text read “0.2 µg/kg iv” for “0.2 mg/kg iv”; target entry is the homologue from another species
value type: ED50 (mg/kg)

COCC(=O)NCCNCC(O)COc1ccccc1 (configuration not stated)    0.016
O=C(Cc1ccc(Cl)cc1)NCCNCC(O)COc1ccccc1 (configuration not stated)    0.017
CC(C)(CNC(=O)Cc1ccccc1)NCC(O)COc1ccccc1 (configuration not stated)    0.011

[A] CC(=O)NCCNCC(O)COc1ccccc1 (configuration not stated)
[B] CC(CNC(=O)Cc1ccccc1)NCC(O)COc1ccccc1 (configuration not stated)
[C] CCCCCC(=O)NCCNCC(O)COc1ccccc1 (configuration not stated)
[D] CC(C)S(=O)(=O)NCCNCC(O)COc1ccccc1 (configuration not stated)
In: Kindly order the items shown according to ED50, from the highest value down. In your reply, arrange the labels in the requested order.
Out: C, A, D, B
